Tested on: U-251
assay.summary: NCI tumour cell line growth inhibition, 48 h
The source made the active and inactive calls. Rule as the data show it: active = GI50 up to about 1.1 µM and inactive = higher.
Permitted responses: active, inactive

Completed entries (count: 5):
C=C(/C=C/C=C(\CO)CCC=C(C)C)[C@H]1CCC2([C@H](CCCO)/C(=C(/C)C=O)CC[C@]2(C)O)[C@H]1O (stereo partly drawn)
inactive
Cc1ccc(N2C(=O)C(Cl)=C(Cl)C2=O)cc1
inactive
N#CC1=C(O)NC(O)=C(C#N)C1c1c(Cl)cccc1Cl
inactive
CC1=NN(C(=O)c2ccccc2O)C(=O)/C1=C/c1c(O)ccc2ccccc12
active
CC(C)SC(NC(=O)C1C(C)(C)CCC1(C)C)C(=O)O (stereo not drawn)
inactive

Task item: Entry CN1C2(c3ccccc3)C(C(=O)c3ccccc3)=C(C(=O)c3ccccc3)C1(c1ccccc1)c1c(-c3ccccc3)sc(-c3ccccc3)c12 : call = ?
Reply: inactive

Task item: Entry COc1ccc2ccccc2c1C1OC(=O)c2ccccc21 (stereo not drawn) : call = ?
Reply: inactive

Task item: Entry COc1ccc2c(c1)C(=O)Cc1ccccc1CC2 : call = ?
Reply: inactive

====

Tested on: Malme-3M
assay.summary: NCI tumour cell line growth inhibition, 48 h
Active and inactive are the calls of the source. No stated cut-off is given here; in the data, active = GI50 up to about 1.1 µM and inactive = higher. Where a SMILES comes first, the peptide text is derived from it. The star is where a group is joined. Cbz = O=C(OCc1ccccc1)*
Permitted responses: active, inactive

Completed entries (count: 3):
CCOC(=O)CCC(NC(=O)CNC(=O)CNC(=O)C(CCC(=O)OCC)NC(=O)C(CCC(=O)OCC)NC(=O)C(CCC(=O)OCC)NC(=O)OCc1ccccc1)C(=O)NC(CCC(=O)OCC)C(=O)NC(CCC(=O)OCC)C(=O)OCC (configuration not stated) (Cbz-E(OEt)E(OEt)E(OEt)GGE(OEt)E(OEt)E(OEt)-OEt; configuration not given here)
inactive
CN(C)c1ccc(C2CC(=O)CC(c3ccc(N(C)C)cc3)C23C(=O)NC(=O)NC3=O)cc1 (configuration not stated)
inactive
O=c1oc2cc(/N=C/c3ccc4c(c3)OCO4)ccc2c2ccccc12
inactive

Task item: Entry Clc1ccc(SC(/C=C/NNC2=NN=C(c3ccccc3)C(c3ccccc3)N2)c2ccccc2)cc1 (configuration not stated) : call = ?
Reply: inactive

Task item: Entry Clc1ccc2nc3c(c(-c4ccccc4)nn3-c3ccccc3)c(-c3ccccc3)c2c1 : call = ?
Reply: inactive

Task item: Entry CC(=O)OCCOCNC(=S)N/N=C(\C)c1cccs1 : call = ?
Reply: inactive

Task item: Entry C=C(/C=C/C=C(\CO)CCC=C(C)C)[C@H]1CCC2([C@H](CCCO)/C(=C(/C)C=O)CC[C@]2(C)O)[C@H]1O (some centres not stated) : call = ?
Reply: inactive

Task item: Entry CC(=O)NC1=CC(=O)c2cc(C)cc(O)c2C1=O : call = ?
Reply: inactive

Task item: Entry CCOC(=O)/C(C(C)=O)=C(\OC(C)=O)c1ccncc1C(=O)O : call = ?
Reply: inactive

Task item: Entry CC(=O)Oc1ccc2c(c1)oc1c3ccc(OC(C)=O)cc3n(C)c(=O)c21 : call = ?
Reply: inactive

====

Kindly state GI50 for each of the entries shown.
Tested on: DU-145
assay.summary: NCI tumour cell line growth inhibition, 48 h
Active and inactive are the calls of the source. Rule as the data show it: active = GI50 up to about 1.1 µM and inactive = higher.

As a guide, the following entries are already answered.
CC(=O)Nc1ccc(/C=C2/NC(=S)N(/C=C3\C(=O)Oc4ccccc4C3=O)C2=O)cc1
94 µM (inactive)
N=C(N)SC(c1ccccc1)c1ccccc1
12.2 µM (inactive)
O=P1(N(CCCl)CCCl)NCCCO1 (configuration not stated) [CYCLOPHOSPHAMIDE ANHYDROUS]
> 250 µM (inactive)
N#CCCCCC12C3C(=O)N(c4ccccc4)C(=O)C3ON1O[C@@H]1C(=O)N(c3ccccc3)C(=O)[C@@H]12 (some centres not stated)
> 100 µM (inactive)
O=C1C(Cl)=C(OCCCCl)C(=O)c2c(O)ccc(O)c21
9.73 µM (inactive)

Give measured GI50 for every item shown.
1. O=C1c2cc(Cl)ccc2N=C(NCCCl)C2CSCN12 (configuration not stated)
2. CCCNC(=O)Nc1ccc2c(c1)Cc1cc(N(CCCl)CCCl)ccc1-2
3. CCOC(=O)c1cn(-c2ccccc2)c(=S)n2c1nc1ccccc12
4. COc1ccc(C2c3cc4c(cc3OC(NCCO)C2C)OCO4)cc1 (configuration not stated)
5. O/N=C/C1c2ccccc2-c2ccccc21

Reply:
> 100 µM (inactive)
14.6 µM (inactive)
63.2 µM (inactive)
29.4 µM (inactive)
20.8 µM (inactive)
